# test.system: Renin in human plasma (Homo sapiens)
# experiment.summary: Inhibition of renin in human plasma
# conditions.used: human EDTA plasma, recombinant renin added at 1 nM, 6 μM substrate, 37° C., 1 hour
pIC50: −log10 of the molar value.
Listed below: pIC50 values for each entry.
experimental.endpoint: pIC50

>>> test_value("CC(=O)NCCc1ccccc1-c1onc([C@H]2CNCC[C@@]23OCc2cc(F)c(F)cc23)c1Br")
9.00
>>> test_value("CC(=O)NCCc1ccccc1-c1ccc([C@@H]2CNCC[C@]23OCc2cc(F)c(F)cc23)c(C)c1 (racemic)")
8.85
>>> test_value("COCCCc1ccccc1-c1ccc([C@@H]2CNCC[C@]23OCc2cn(C)c(=O)cc23)c(C)c1 (racemic)")
7.74
>>> test_value("Cc1cc(-c2ccccc2CCNC(=O)CO)ccc1[C@H]1CNCC[C@@]12OC(=O)c1cc(F)c(F)cc12")
9.09

---

# test.system: Human recombinant renin (Homo sapiens)
# Sequence (P00797 67-406): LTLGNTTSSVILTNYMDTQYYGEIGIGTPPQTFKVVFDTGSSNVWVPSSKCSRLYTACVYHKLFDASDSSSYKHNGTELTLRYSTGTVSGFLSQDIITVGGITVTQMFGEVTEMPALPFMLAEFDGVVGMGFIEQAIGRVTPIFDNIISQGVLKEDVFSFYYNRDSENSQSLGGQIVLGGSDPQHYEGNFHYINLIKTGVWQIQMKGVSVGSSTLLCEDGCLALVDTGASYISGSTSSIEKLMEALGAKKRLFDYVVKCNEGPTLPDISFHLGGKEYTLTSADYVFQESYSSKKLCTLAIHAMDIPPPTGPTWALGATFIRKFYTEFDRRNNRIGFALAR
# experiment.summary: Inhibition of human recombinant renin (buffer assay)
# conditions.used: buffer: 50 mM MOPS pH 7.4, 100 pM renin, 6 μM fluorescent peptide, 37° C., 3 hours
pIC50: −log10 of the molar value.
Listed below: pIC50 values for each entry.
experimental.endpoint: pIC50

>>> test_value("CC(=O)NCCc1ccccc1-c1ccc([C@@H]2CNCC[C@]23OCc2cc(F)c(F)cc23)c(C)c1 (racemic)")
9.70
>>> test_value("CC(=O)NCCc1ccccc1-c1onc([C@H]2CNCC[C@@]23OCc2cc(F)c(F)cc23)c1Br")
9.59
>>> test_value("COCCCc1ccccc1-c1ccc([C@@H]2CNCC[C@]23OCc2cn(C)c(=O)cc23)c(C)c1 (racemic)")
8.80
>>> test_value("Cc1cc(-c2ccccc2CCNC(=O)CO)ccc1[C@H]1CNCC[C@@]12OC(=O)c1cc(F)c(F)cc12")
9.18
